Molecular target: D2 receptors (Homo sapiens)
Sequence (P14416 whole entry): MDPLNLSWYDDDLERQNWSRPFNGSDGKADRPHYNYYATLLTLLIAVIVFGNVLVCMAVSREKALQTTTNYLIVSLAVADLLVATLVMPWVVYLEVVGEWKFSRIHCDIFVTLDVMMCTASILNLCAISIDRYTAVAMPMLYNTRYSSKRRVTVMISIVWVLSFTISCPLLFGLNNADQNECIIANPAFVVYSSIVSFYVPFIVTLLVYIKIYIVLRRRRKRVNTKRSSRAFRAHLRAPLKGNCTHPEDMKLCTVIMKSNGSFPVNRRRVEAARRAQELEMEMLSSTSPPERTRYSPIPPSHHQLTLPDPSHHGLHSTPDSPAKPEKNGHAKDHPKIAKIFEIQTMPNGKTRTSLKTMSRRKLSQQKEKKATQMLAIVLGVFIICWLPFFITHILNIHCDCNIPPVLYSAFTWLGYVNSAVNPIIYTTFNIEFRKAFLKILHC
Experiment: Dopamine D2 binding assay (human)
pKi: −log10 of the molar value.
test.readout: pKi

See these solved cases before continuing.
>  <compound.string>
Cc1ccc2c(c1)C(N1CCN(CC(C)(C)C(=O)O)CC1)=Nc1ccccc1O2

>  <test.readout>
pKi

>  <measurement>
5.78

$$$$
>  <compound.string>
CC(C)(CCN1CCN(C2=Nc3ccccc3Oc3ccc(Cl)cc32)CC1)C(=O)O

>  <test.readout>
pKi

>  <measurement>
7.02

$$$$

(P) CC(C)(CCN1CCN(C2=Nc3ccccc3Oc3ccccc32)CC1)C(=O)O
(Q) Cc1ccc2c(c1)N=C(N1CCN(CC(C)(C)C(=O)O)CC1)c1ccccc1O2
Query: Lab log: flag the item ( P or Q ) with the smaller pKi figure. Pick one and reply with its label.
Reply: Q

Entry source: patent US20060063755A1
